- target under test: panel of more than 300 wild-type and mutant kinases (313 kinase panel) (Homo sapiens, UniProt Q14164)
- experimental details: Kinase profiling in a biochemical assay panel (mobility shift assays and ELISA), %-inhibition at 1 μM; selectivity entropy
- measurement setup: kinase IKKε; compound at 1 μM
measured attribute: %-inhibition of IKKε (%)
Please give a number only; it is taken to be in %.

Consider the reported %-inhibition of IKKε for these compounds:
compound	observed
CNC(=O)c1cc(Oc2ccc(NC(=O)Nc3ccc(Cl)c(C(F)(F)F)c3)c(F)c2)ccn1	-7
Cc1ccc(Nc2nccc(N(C)c3ccc4c(C)n(C)nc4c3)n2)cc1S(N)(=O)=O	0
CC(C)(C)c1nc(-c2cccc(NS(=O)(=O)c3c(F)cccc3F)c2F)c(-c2ccnc(N)n2)s1	15
COc1cc(Nc2c(C#N)cnc3cc(OCCCN4CCN(C)CC4)c(OC)cc23)c(Cl)cc1Cl	4.39
O=S(=O)(c1cccc2cnccc12)N1CCCNCC1	-1.77
CS(=O)(=O)CCNCc1ccc(-c2ccc3ncnc(Nc4ccc(OCc5cccc(F)c5)c(Cl)c4)c3c2)o1	-5
COc1cc2c(Nc3ccc(Br)cc3F)ncnc2cc1OCC1CCN(C)CC1	-6.49
COc1cc2nccc(Oc3ccc(NC(=O)C4(C(=O)Nc5ccc(F)cc5)CC4)cc3)c2cc1OC [cabozantinib]	-7.58
Cc1cn(-c2cc(NC(=O)c3ccc(C)c(Nc4nccc(-c5cccnc5)n4)c3)cc(C(F)(F)F)c2)cn1	-2.79
N#CC[C@H](C1CCCC1)n1cc(-c2ncnc3[nH]ccc23)cn1	15

Q. Which %-inhibition of IKKε reading was recorded for the compound CC(=O)Nc1cccc(-n2c(=O)n(C3CC3)c(=O)c3c(Nc4ccc(I)cc4F)n(C)c(=O)c(C)c32)c1 ?
A. -3.63

Q. What would you report for C[C@@H](Oc1cc(-c2cnn(C3CCNCC3)c2)cnc1N)c1c(Cl)ccc(F)c1Cl ?
A. 7.49

Q. What would you report for Cc1ccc(C(=O)Nc2ccc(CN3CCN(C)CC3)c(C(F)(F)F)c2)cc1C#Cc1cnc2cccnn12 ?
A. -9

Q. What would you report for CO[C@H]1C[C@@H]2CC[C@@H](C)[C@@](O)(O2)C(=O)C(=O)N2CCCC[C@H]2C(=O)O[C@H]([C@H](C)C[C@@H]2CC[C@@H](OC(=O)C(C)(CO)CO)[C@H](OC)C2)CC(=O)[C@H](C)/C=C(\C)[C@@H](O)[C@@H](OC)C(=O)[C@H](C)C[C@H](C)/C=C/C=C/C=C/1C ?
A. -11

Q. What would you report for CCCS(=O)(=O)Nc1ccc(F)c(C(=O)c2c[nH]c3ncc(-c4ccc(Cl)cc4)cc23)c1F ?
A. -9

Q. What would you report for CO[C@H]1C[C@@H]2CC[C@@H](C)[C@@](O)(O2)C(=O)C(=O)N2CCCC[C@H]2C(=O)O[C@H]([C@H](C)C[C@@H]2CC[C@@H](OCCO)[C@H](OC)C2)CC(=O)[C@H](C)/C=C(\C)[C@@H](O)[C@@H](OC)C(=O)[C@H](C)C[C@H](C)/C=C/C=C/C=C/1C ?
A. -10
